study target: c-Src SH2
assay name: SH2 binding enrichment of the phosphorylated peptide, bacterial display (enrichment ratio); higher = better substrate or ligand; peptides without Tyr show the background
Mark false (0) for SH2 binding enrichment values under 0.7, and true (1) for everything at or above.

Record excerpt, results attached:
# chain, study target, assigned class
measured = [
    ("RELGEYGLQAY [ALDH2_Y497]", "c-Src SH2", "false (0)"),
    ("RSSKTYLKTRS [LPL_Y329_M328T]", "c-Src SH2", "true (1)"),
    ("QTWKTYVRQQQ [SFI1_Y164]", "c-Src SH2", "true (1)"),
    ("EQLRAYLEGEC [HLA-C_Y183_T187E]", "c-Src SH2", "false (0)"),
    ("GYAGKYIAMVM [CYP19A1_Y441_C437Y]", "c-Src SH2", "true (1)"),
]

Would you say "ENAGFYFRVSA" shows SH2 binding enrichment at minimum 0.7?
false (0)

API: above_or_equal(metric=SH2 binding enrichment, cutoff=0.7) for item ADCRYYAFPQM [GAMT_Y223]
true (1)

Say whether IENKLYGTSDP [RET_Y1062_M1064T] shows SH2 binding enrichment of 0.7 or more.
false (0)

Assess whether reported SH2 binding enrichment for WGLCSYYETSK [MAGED2_Y448_R446C] sits at 0.7 or higher.
false (0)

API: above_or_equal(metric=SH2 binding enrichment, cutoff=0.7) for item CTTNHYNFMCN [TP53_Y234_I232N_YF]
true (1)

###

Items are presented alongside their recorded phosphorylation enrichment.
study target: Jak2 (UniProt O60674)
Sequence (O60674 whole entry, looked up): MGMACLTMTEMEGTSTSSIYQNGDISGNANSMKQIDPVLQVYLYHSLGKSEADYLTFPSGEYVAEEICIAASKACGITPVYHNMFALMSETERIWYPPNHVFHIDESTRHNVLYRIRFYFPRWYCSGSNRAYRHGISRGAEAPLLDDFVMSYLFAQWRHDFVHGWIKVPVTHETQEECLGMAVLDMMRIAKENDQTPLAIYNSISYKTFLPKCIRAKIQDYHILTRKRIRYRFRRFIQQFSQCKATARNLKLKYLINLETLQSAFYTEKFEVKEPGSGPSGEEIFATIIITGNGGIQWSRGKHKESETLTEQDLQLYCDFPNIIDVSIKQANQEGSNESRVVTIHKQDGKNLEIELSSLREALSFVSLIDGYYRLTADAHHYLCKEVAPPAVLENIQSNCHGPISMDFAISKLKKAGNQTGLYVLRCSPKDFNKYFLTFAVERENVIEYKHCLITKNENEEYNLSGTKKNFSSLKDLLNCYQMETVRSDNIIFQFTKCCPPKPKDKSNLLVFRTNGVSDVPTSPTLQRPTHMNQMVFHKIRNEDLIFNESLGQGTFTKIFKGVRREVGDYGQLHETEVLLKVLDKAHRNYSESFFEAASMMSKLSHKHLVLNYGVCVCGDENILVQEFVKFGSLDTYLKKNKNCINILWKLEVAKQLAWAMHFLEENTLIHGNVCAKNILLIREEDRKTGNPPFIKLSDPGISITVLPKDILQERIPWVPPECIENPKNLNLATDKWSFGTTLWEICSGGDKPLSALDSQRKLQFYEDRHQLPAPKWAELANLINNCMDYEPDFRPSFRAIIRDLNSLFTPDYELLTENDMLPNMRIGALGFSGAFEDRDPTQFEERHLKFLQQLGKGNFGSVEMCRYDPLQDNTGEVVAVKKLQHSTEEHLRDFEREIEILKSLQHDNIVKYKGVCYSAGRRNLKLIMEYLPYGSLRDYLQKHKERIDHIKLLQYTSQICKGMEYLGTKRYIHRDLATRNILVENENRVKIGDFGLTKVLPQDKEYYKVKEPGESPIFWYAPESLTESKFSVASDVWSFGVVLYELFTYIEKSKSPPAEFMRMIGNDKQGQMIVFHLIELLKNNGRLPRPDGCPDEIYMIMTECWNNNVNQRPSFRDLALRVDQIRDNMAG
assay name: phosphorylation enrichment, bacterial display (enrichment ratio); higher = better substrate or ligand; peptides without Tyr show the background
Number only, please.

Below: 5 sequences and their reported phosphorylation enrichment.
# chain, study target, phosphorylation enrichment
measured = [
    ("GFKVRYATWSI [FGFR1_Y210_YF]", "Jak2 (UniProt O60674)", 0.997),
    ("HNLPIYEGFAL [ACTA1_Y168_V165L_YF]", "Jak2 (UniProt O60674)", 0.996),
    ("ADNQRYAFMPL [TMEM87B_Y460_N456D]", "Jak2 (UniProt O60674)", 0.673),
    ("ATGGFYSYGGG [KRT24_Y120]", "Jak2 (UniProt O60674)", 0.858),
    ("ASELGYVFQAI [UROD_Y133]", "Jak2 (UniProt O60674)", 0.924),
]

// next item, phosphorylation enrichment requested
Quick check: phosphorylation enrichment of VPLATYMQIFK [RPL21_Y30_R32Q_YF] ?
0.836

###

study target: Grb2 SH2 (UniProt P62993)
Sequence (P62993 whole entry, looked up): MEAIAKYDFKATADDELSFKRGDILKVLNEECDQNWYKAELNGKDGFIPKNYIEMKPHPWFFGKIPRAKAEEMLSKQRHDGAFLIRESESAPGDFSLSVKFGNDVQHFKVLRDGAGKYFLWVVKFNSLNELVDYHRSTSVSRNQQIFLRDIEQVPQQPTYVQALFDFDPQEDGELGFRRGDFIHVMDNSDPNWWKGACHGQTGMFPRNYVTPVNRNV
assay name: SH2 binding enrichment of the phosphorylated peptide, bacterial display (enrichment ratio); higher = better substrate or ligand; peptides without Tyr show the background
quantity measured: SH2 binding enrichment
Write no unit; give the number alone.

# chain, SH2 binding enrichment
records = [
    ("YRIGPYQPNVP [MATR3_Y784]", 0.765),
    ("DGLASYLDKVR [KRT12_Y139_R135G]", 0.872),
    ("VKPENYRRLDV [VHL_Y175_I180V]", 0.778),
    ("GCKKRYDKDKP [THAP1_Y14_N12K]", 0.755),
]

Any idea what SH2 binding enrichment came out for RSDEDYLFREE [POR_Y573_YF] on Grb2 SH2 (UniProt P62993)?
0.847

GET /values?readout=SH2 binding enrichment&system=Grb2 SH2 (UniProt P62993)&item= GEPLSYTRFSL [TFRC_Y20]
0.901

Test system Grb2 SH2 (UniProt P62993); read-out SH2 binding enrichment; what value for PMDTYYDSTRG [DYNC2H1_Y2231] ?
0.666

What reported SH2 binding enrichment corresponds to NNHGNYIVHLG [ETFDH_Y172_R175H] on Grb2 SH2 (UniProt P62993)?
0.863

What SH2 binding enrichment appears in the records for this sequence with Grb2 SH2 (UniProt P62993)? GVPLGYPIKAS [ELN_Y206_P211S]
0.783

Value source: the supplement of paper PMC10065799
